Provenance of the data: PubChem BioAssay

Test: osmotic lysis modulators in infected erythrocytes, primary screen, PSAC antagonist project, cell-based, P. falciparum Indochina, OD700, 3 h (AID 1156)
Conditions: higher = more signal, called active from +8 up or from −8 down
propertyMeasured: z-score
No unit in the answer, please; the number alone is enough.

Example entries and their recorded answers appear below.
COCCOC(=O)N1C(=O)[C@@]2(c3ccccc31)[C@H](c1ccccc1OCCO)N1[C@H](c3ccccc3)[C@H](c3ccccc3)OC(=O)[C@H]1[C@@H]2C(=O)Nc1nc2ccccc2s1 | 1.37
O=C1C2C=CC(C(O)C(c3ccccc3)c3ccccc3)N(n3cnnc3)C2C(=O)N1Cc1ccccc1 (configuration not stated) | -0.218
COc1ccc([Si](C)(C)[C@H]2[C@H](CCn3cc([C@H](O)c4ccccc4)nn3)O[C@@]3(C(=O)N(Cc4cccc(N5CCOC5=O)c4)c4ccccc43)[C@@H]2C)cc1 | -0.295
O=C1OCCC=C[C@H]2OC34C=CCN(CCN5CCOCC5)C(=O)[C@H]3N(CCCCCCO)C(=O)[C@@H]4C12 (some centres not stated) | 0.835
COC(=O)[C@@]1(Cc2ccc(F)cc2)[C@H]2c3cc(C(=O)N(C)C)n(Cc4ccc(S(C)(=O)=O)cc4)c3C[C@H]2CN1C(=O)c1ccccc1 | 1.01

Problem: Look up z-score: CC1CC/C=C\[C@H]2OC34C=CCN(Cn5nnc6ccccc65)C(=O)[C@H]3N(C(CO)C(C)C)C(=O)[C@@H]4C2C(=O)O1 (some centres not stated)
Result: 0.752

Problem: Another: CC(C)C[C@H]1NC(=O)[C@@]23C(=O)N[C@@H](Cc4ccccc4)C2[C@H](C)[C@@]2(C)O[C@H]2C3/C=C/C/C=C\CNC(=O)[C@H](Cc2ccccc2)NC1=O (some centres not stated)
Result: 1.58

* * *

Target: Pro-neuregulin-1, membrane-bound isoform (Homo sapiens) (UniProt Q02297)
Sequence (Q02297 whole entry, looked up, canonical isoform): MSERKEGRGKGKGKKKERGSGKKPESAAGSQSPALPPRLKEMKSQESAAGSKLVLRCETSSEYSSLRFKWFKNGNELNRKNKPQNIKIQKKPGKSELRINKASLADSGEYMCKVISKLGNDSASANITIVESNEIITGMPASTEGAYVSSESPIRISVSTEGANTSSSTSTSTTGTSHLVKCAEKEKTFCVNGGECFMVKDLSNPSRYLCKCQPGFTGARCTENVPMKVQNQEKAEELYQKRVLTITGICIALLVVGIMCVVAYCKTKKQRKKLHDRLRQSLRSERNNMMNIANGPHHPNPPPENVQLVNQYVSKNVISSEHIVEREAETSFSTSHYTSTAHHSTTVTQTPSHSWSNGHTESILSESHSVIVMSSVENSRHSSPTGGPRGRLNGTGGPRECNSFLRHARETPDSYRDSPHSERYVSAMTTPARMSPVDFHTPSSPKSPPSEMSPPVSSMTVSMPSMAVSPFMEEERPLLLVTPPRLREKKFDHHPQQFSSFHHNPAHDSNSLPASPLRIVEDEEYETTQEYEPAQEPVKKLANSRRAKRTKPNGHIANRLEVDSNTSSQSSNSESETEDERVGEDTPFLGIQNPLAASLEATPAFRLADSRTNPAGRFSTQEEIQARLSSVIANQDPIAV
Assay: NRG1 binders on small-molecule microarrays, primary screen, psychiatric disease protein project, biochemical, small-molecule microarray, fluorescence 635/667 (AID 1075);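 further: score combines 667 nm spot fluorescence with signal to noise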
Details: NRG1 binding, 635 nm fluorescence, higher = more signal
propertyMeasured: composite z-score
Just the number, please, no unit attached.

Take a look at these entries with their results.
COC(=O)[C@@]1(Cc2ccccc2)[C@H]2c3cc(C(=O)N4CCCC4)n(CC4CC4)c3C[C@H]2CN1C(=O)c1ccccc1 | 1.64
COc1ccc(C(O)C2C=CC3C(=O)NC(=O)C3N2Nc2ccccn2)c2ccccc12 (centres undefined) | 1
Cc1ccc(C(C)CC(O)C2C=CC3C(=O)N(C)C(=O)C3N2NC(=O)OC(C)(C)C)o1 (centres undefined) | 1.67
COCCOC(=O)N1C(=O)[C@@]2(c3cc(C#Cc4ccc(OC)cc4)ccc31)[C@H](c1ccc(O)cc1)N1[C@H](c3ccccc3)[C@H](c3ccccc3)OC(=O)[C@H]1[C@@H]2C(=O)NC[C@H](O)c1ccccc1 | 1.53
C[C@@H]1ON(c2cccc(C(=O)OC(C)(C)C)c2)[C@H](c2ccc(Br)cc2)[C@H]1C(=O)N1C(=O)OC[C@H]1Cc1ccccc1 | 0.457
O=C1C2C=CC(C(O)c3ccc(F)cc3)N(Nc3ccccc3F)C2C(=O)N1c1ccccc1 (centres undefined) | 1.99
CC(C)(C)OC(=O)CC[C@]1(C(=O)O)N=C(c2ccc(OCCCO)cc2)O[C@H]1c1ccccc1N=[N+]=[N-] | 1.35
C[C@@]1([C@@H](NC(=O)c2ccccc2)c2ccc(-c3ccccc3)cc2)C[C@H]1C1CCCCC1 | -0.0156

Problem: Can you share its composite z-score? I mean this compound: `COC(=O)c1c(CC[C@@H](CO)NC(=O)N2CCC[C@H]2Cn2cc(-c3ccccn3)nn2)oc(C(C)=O)c1C(=O)OC`
Result: 0.963

* * *

Entries and their measured composite z-score follow.
Assay: compound binding in COS7 lysate, probe aLAP1, primary screen, cell lysate, small-molecule microarray (AID 1124);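 further: lysate comes from COS7 cells expressing LAP1 and is applied at 0.3 µg/mL; score merges spot fluorescence near 667 nm with signal-to-noise over triplicate slides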
Conditions: probe aLAP1, fluorescence, higher = more signal

// below: answered compounds
[N-]=[N+]=NCc1ccccc1[C@@H]1OC(c2ccc(OCCCO)cc2)=N[C@]1(CCS(=O)(=O)c1ccccc1)C(=O)NCCN1CCOCC1 | 0.623
CC(=O)NCCCC[C@@H]1NC(=O)[C@@H]2C[C@H](C(=O)NCCCCCCNC(=O)CS)[C@H](c3cccc(OCCO)c3)N2C1=O | 0.689
NCCCCCNC(=O)[C@@H]1C[C@@H]2C(=O)NCC(=O)N2[C@@H]1c1ccc(O)cc1 | 0.249

Attention now shifts to the item below.
Problem: Query: composite z-score; subject: `Cc1ccc(S[C@]2(C(=O)NC3CC3)CC(=O)N(C3Cc4ccccc4C3)[C@@H]2c2ccc(CO)cc2)cc1`
Result: 0.845

* * *

Tested on: Lefty1
Assay: Lefty1 binders on small-molecule microarrays, primary screen, biochemical, small-molecule microarray, 635/667 nm fluorescence (AID 1139)
Details: small-molecule microarray binding, fluorescence 635/667; higher = more signal
propertyMeasured: composite z-score
Lab note: jot down the number only; don't add units.

Solved cases (4 shown):
CCCN1C(=O)[C@]2(CCS(=O)(=O)c3ccccc3)N=C(c3ccc(OCCCO)cc3)O[C@@H]2c2ccccc21 | 0.576
O=C(O)[C@@]1(CCS(=O)(=O)c2ccccc2)COC(c2ccc(OCCCO)cc2)=N1 | -1.34
C[N+](C)(C)CCCC[C@@H]1NC(=O)[C@@H]2C[C@H](C(=O)NCCCCCN)[C@H](c3cccc(OCCO)c3)N2C1=O | 0.161
COC(=O)[C@@]1(Cc2ccc(F)cc2)[C@H]2c3cc(C(=O)N4CCCC4)n(Cc4cc(C)n(C)n4)c3C[C@H]2CN1C(=O)c1ccccc1 | -0.847

# next compound below
Problem: Look up composite z-score: `C=C[C@H](COC(C)=O)N(C(=O)OC(C)(C)C)S(=O)(=O)c1ccc(Br)cc1`
Result: 0.65

* * *

Test system: Wnt5a (protein binding on small-molecule microarray)
Experiment: Wnt5a binders on small-molecule microarray, primary screen, biophysical, 635/667 nm fluorescence (AID 1142);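 further: fluorescence read at 667 nm with signal to noise per printed feature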
Conditions: 635 nm fluorescence, higher = more signal
propertyMeasured: composite z-score
Answer as a number with no unit attached.

COc1ccc([C@H]2OC[C@@H]3CC4(CC=CC4)C(=O)N32)cc1 | 0.0071
CS(=O)(=O)CCOC(=O)C1=CC(CCCO)=CC(c2ccc(CN3CCCC3)cc2)N(Cc2cc3c(cc2Br)OCO3)C=C1C(=O)OCCS(C)(=O)=O (stereo not given) | 0.592
CCCC[C@H]1OB(O)C[C@H]2C1=C(COc1ccccc1)C[C@H]1C(=O)N(C)C(=O)[C@H]12 | 0.195
CCOC(=O)[C@H]1C/C=C/C[C@H](C(=O)OCC)C(=O)O[C@H]2[C@@H](OC)O[C@H](CO)[C@@H](OC(=O)Nc3cccc(F)c3)[C@@H]2OC1=O | 0.39
Cc1ccc(S[C@]2(C(=O)NC(C)C)CC(=O)N(Cc3ccccc3Cl)[C@@H]2c2ccc(CO)cc2I)cc1 | -0.615

Problem: Record request: composite z-score value, item `COC(=O)c1c(CC[C@@H](CO)NC(=O)N[C@H](Cn2cc(Cc3ccccc3)nn2)C(C)C)oc(C(C)=O)c1C(=O)OC`
Result: 0.367

Problem: Check CN1C(=O)C2C=CC(C(O)c3cccs3)N(Nc3ccccc3)C2C1=O (stereo not given) too.
Result: 0.455

Problem: What would you report for `CC(=O)N1Cc2ccccc2C[C@@]2(COC(c3ccc(OCCCO)cc3)=N2)C1=O` ?
Result: 0.36

Problem: Try this molecule too: `COC(=O)[C@@]1(Cc2ccc(OC)cc2)[C@H]2c3cc(C(=O)N4CCCC4)n(Cc4ccsc4Br)c3C[C@H]2CN1C(=O)c1ccccc1`
Result: 0.0185

Problem: Also need `CCOC(=O)[C@H]1C/C=C/C[C@H](C(=O)OCC)C(=O)O[C@H]2[C@@H](OC)O[C@H](CO)[C@@H](OC(=O)Nc3ccc(C#N)cc3)[C@@H]2OC1=O` , thanks.
Result: 0.121

* * *

Reported z-score is given for each of the following molecules.
Test: basal RPMI8226 viability, no added stimulus, profiling panel, cell-based, calcein-AM fluorescence, 48 h, PK04 Diversity Set (AID 1166);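 further: cells grown under basal conditions without added stimulus; test concentration not given here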
Conditions: RPMI8226 myeloma viability, higher = more signal
Keep it simple and answer with nothing but the number.

CCOC(=O)C[C@H]1[C@H](OC(=O)Cc2ccc3c(c2)OCO3)[C@@H](NC(=O)c2ccc3ccccc3c2)c2cc(OCCCO)ccc2N1C(=O)c1ccccc1 | -0.377
C#CCN(Cc1ccccc1Br)C(/C=C/c1ccccc1)CO (stereo not drawn) | -4.12
C=C[C@H](COC(C)=O)N(C(=O)OC(C)(C)C)S(=O)(=O)c1ccc(Br)cc1 | 0.0593
CCN(CC)c1ccc(N2CC=CC34O[C@@H]5/C=C\CCC(C)OC(=O)C5[C@H]3C(=O)N(C(CO)C(C)C)[C@@H]4C2=O)cc1 (stereo partly drawn) | -0.208
O=C1OCCC=C[C@H]2OC34C=CCN(CCN5CCOCC5)C(=O)[C@H]3N(CCCCCCO)C(=O)[C@@H]4C12 (stereo partly drawn) | 0.477

Problem: Record request: z-score value, item `CN(C)CCCC[C@@H]1NC(=O)[C@H]2C[C@@H](C(=O)NCCCCCNC(=O)CS)[C@@H](c3cccc(OCCO)c3)N2C1=O`
Result: -0.0199

Problem: Thanks! And `COC(=O)c1c(CC[C@@H](CO)NC(=O)N[C@@H](C)Cn2cc(C3(O)CCCCC3)nn2)oc(C(C)=O)c1C(=O)OC` ?
Result: -1.82

Problem: What do you have for C=CCC(OC(C)=O)[C@@H]1[C@@H](N(Cc2ccc(-c3cccc(C(F)(F)F)c3)o2)C(=O)Cc2ccc(F)cc2)c2cc(OCCCO)ccc2N1C(=O)Cc1ccc(OC)cc1 (stereo partly drawn) ?
Result: 0.274

Problem: And for `CC(C)(C)OC(=O)CC[C@]1(C(=O)O)N=C(c2ccc(OCCCO)cc2)O[C@H]1c1ccccc1N=[N+]=[N-]` ?
Result: -0.24

Problem: Would you mind doing `CCOC(=O)C=Cc1cc([N+](=O)[O-])ccc1O` as well?
Result: -2.29

Problem: Thanks! And `C=CCOC(=O)[C@H]1[C@@H]2C(=O)O[C@@H](c3ccccc3)[C@@H](c3ccccc3)N2[C@@H](c2ccc(OCCOC(=O)[C@@H]3C[C@@H]4C(=O)N[C@@H](CCCCN(C)C)C(=O)N4[C@@H]3c3ccc(O)cc3)cc2)[C@]12C(=O)Nc1ccc(I)cc12` ?
Result: -0.449

Problem: What do you get for `COC(=O)[C@@]1(Cc2ccccc2)[C@H]2c3cc(C(=O)N4CCCC4)n(CC4CC4)c3C[C@H]2CN1C(=O)c1ccccc1` ?
Result: -2.15

Problem: Same again, this time with CCCCC(O)C1C=CC2C(=O)N(c3ccccc3)C(=O)C2N1Nc1ccccc1F (stereo not drawn)
Result: -0.812
